test system: HT-29; assay: Cell cycle arrest in human HT-29 cells assessed as accumulation of Sub-G1 phase at 20 uM after 24 hrs by flow cytometry relative to control; type: functional
A collection of compounds and their measured Activity
A number alone suffices; assume %.

Reference set, count: 3
CC(C)C(NC(=O)Cn1c2ccccc2c2c3c(c4c5ccccc5[nH]c4c21)C(=O)N(C)C3=O)C(=O)N1CCOCC1 (centres undefined)    2.49
CCN1CCN(C(=O)C(CC(C)C)NC(=O)Cn2c3ccccc3c3c4c(c5c6ccccc6[nH]c5c32)C(=O)N(C)C4=O)CC1 (centres undefined)    8.86
CCN1CCN(C(=O)C(Cc2ccccc2)NC(=O)Cn2c3ccccc3c3c4c(c5c6ccccc6[nH]c5c32)C(=O)N(C)C4=O)CC1 (centres undefined)    10.3

Ask: Lab request: please report Activity under test system HT-29 for CC(C)CC(NC(=O)Cn1c2ccccc2c2c3c(c4c5ccccc5[nH]c4c21)C(=O)N(C)C3=O)C(=O)N1CCN(C)CC1 (centres undefined)
Result: 14.33

Source of measurements: ChEMBL document CHEMBL1154523
